# test_details: Selectivity index, ratio of CC50 for Cytotoxicity against human Huh7.5 cells to EC50 for antiviral activity against HCV infected in human Huh7.5 cells
# Format: toxicity, cell-based
# experimental_context: read-out: Ratio CC50/EC50

{"compound": "O=C1Cn2c(nc3ccccc3c2=O)-c2ccccc2N1", "selectivity ratio": "> 28"}
{"compound": "O=C1N[C@@H](Cc2ccccc2)C(=O)N(O)[C@H]1C[C@]1(O)c2ccccc2N2C(=O)C[C@@H](c3ccccc3)N[C@H]21", "selectivity ratio": "< 3"}
{"compound": "CCC[C@H](NC(=O)[C@@H]1[C@H]2CCC[C@H]2CN1C(=O)[C@@H](NC(=O)[C@@H](NC(=O)c1cnccn1)C1CCCCC1)C(C)(C)C)C(=O)C(=O)NC1CC1 [TELAPREVIR]", "selectivity ratio": 478}
{"compound": "O=C1NCc2nc3ccccc3c(=O)n2-c2ccccc21 [SCLEROTIGENIN]", "selectivity ratio": "> 35"}
{"compound": "O=C1N[C@@H](Cc2ccccc2)C(=O)N2O[C@H]3Nc4ccccc4[C@@]3(O)C[C@@H]12", "selectivity ratio": "> 35"}

###

Measured CC50 accompanies every entry in the list below.
# test_details: Cytotoxicity against human Huh7.5 cells assessed as reduction in cell viability
# Assay type: cell-based

{"molecule": "CCC[C@H](NC(=O)[C@@H]1[C@H]2CCC[C@H]2CN1C(=O)[C@@H](NC(=O)[C@@H](NC(=O)c1cnccn1)C1CCCCC1)C(C)(C)C)C(=O)C(=O)NC1CC1 [TELAPREVIR]", "quantity_unit": "µM", "relation_operator": "=", "CC50": 25.8}
{"molecule": "O=C1N[C@@H](Cc2ccccc2)C(=O)N(O)[C@H]1C[C@]1(O)c2ccccc2N2C(=O)C[C@@H](c3ccccc3)N[C@H]21", "quantity_unit": "µM", "relation_operator": "=", "CC50": 88.4}
{"molecule": "O=C1N[C@@H](Cc2ccccc2)C(=O)N2O[C@H]3Nc4ccccc4[C@@]3(O)C[C@@H]12", "quantity_unit": "µM", "relation_operator": ">", "CC50": 200}
{"molecule": "O=C1NCc2nc3ccccc3c(=O)n2-c2ccccc21 [SCLEROTIGENIN]", "quantity_unit": "µM", "relation_operator": ">", "CC50": 200}
{"molecule": "O=C1Cn2c(nc3ccccc3c2=O)-c2ccccc2N1", "quantity_unit": "µM", "relation_operator": ">", "CC50": 200}

###

# System: HCT-116
# test_details: Cytotoxicity against human HCT116 cells
# Assay type: functional, cell-based
property_measured: IC50

{"compound": "O=C1N[C@@H](Cc2ccccc2)C(=O)N2O[C@H]3Nc4ccccc4[C@@]3(O)C[C@@H]12", "target_desc": "HCT-116", "measurement": "≥ 100 µM"}
{"compound": "O=C1Cn2c(nc3ccccc3c2=O)-c2ccccc2N1", "target_desc": "HCT-116", "measurement": "≥ 100 µM"}
{"compound": "O=C1N[C@@H](Cc2ccccc2)C(=O)N(O)[C@H]1C[C@]1(O)c2ccccc2N2C(=O)C[C@@H](c3ccccc3)N[C@H]21", "target_desc": "HCT-116", "measurement": "≥ 100 µM"}
{"compound": "O=C1NCc2nc3ccccc3c(=O)n2-c2ccccc21 [SCLEROTIGENIN]", "target_desc": "HCT-116", "measurement": "≥ 100 µM"}
